Reported values of self-splicing fitness (ln) for individual entries
- Test summary: self-splicing fitness, log relative to wild type (ln ratio); higher = more splicing; Tetrahymena group I intron in knt gene, E. coli kanamycin selection, DiMSum; sequences stand for … in CUCUCU…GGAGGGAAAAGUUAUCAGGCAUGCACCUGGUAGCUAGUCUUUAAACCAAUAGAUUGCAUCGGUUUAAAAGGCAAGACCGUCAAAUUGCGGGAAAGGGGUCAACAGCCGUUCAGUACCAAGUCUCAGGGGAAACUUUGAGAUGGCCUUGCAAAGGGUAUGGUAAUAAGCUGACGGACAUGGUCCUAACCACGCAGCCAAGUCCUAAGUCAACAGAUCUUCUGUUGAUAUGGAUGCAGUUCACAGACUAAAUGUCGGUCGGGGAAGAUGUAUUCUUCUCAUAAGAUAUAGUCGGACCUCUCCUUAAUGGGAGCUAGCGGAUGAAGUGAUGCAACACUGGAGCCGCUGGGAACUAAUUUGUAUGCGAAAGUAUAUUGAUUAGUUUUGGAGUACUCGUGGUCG;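 also: selection with 25 µg/mL kanamycin versus none on LB agar overnight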
- Assay setup: 37 °C
Respond using a number only.

{"Sequence data": "GCGCAGCAAUAUUACGGUUU", "Observed value": -0.167}
{"Sequence data": "AGCCAGCAAUAUUACGACUA", "Observed value": -1.5}
{"Sequence data": "AGUAAGCAAUAUUACGCGCA", "Observed value": 0.0785}
{"Sequence data": "ACGCAGCAAUAUUACGAACU", "Observed value": -0.501}

Note to self: self-splicing fitness (ln) recorded for UAUCAGCAAUAUUACGCGCA was 0.506

Note to self: self-splicing fitness (ln) recorded for CUGCAGCAAUAUUACGAUAG was -0.167

Note to self: self-splicing fitness (ln) recorded for AUUAAGCAAUAUUACGGCGC was 0.103

Note to self: self-splicing fitness (ln) recorded for CUCUAGCAAUAUUACGGGUC was -2.21

Note to self: self-splicing fitness (ln) recorded for CUUGAGCAAUAUUACGUCAG was -0.671

Note to self: self-splicing fitness (ln) recorded for GGGUAGCAAUAUUACGGGUA was -1.1

Note to self: self-splicing fitness (ln) recorded for AGGCAGCAAUAUUACGGUGU was -1.73

Note to self: self-splicing fitness (ln) recorded for AGUCAGCAAUAUUACGAAAG was -1.45

Note to self: self-splicing fitness (ln) recorded for CAAGAGCAAUAUUACGCAAU was -1.52

Note to self: self-splicing fitness (ln) recorded for UACGAGCAAUAUUACGCACG was -1.3

Note to self: self-splicing fitness (ln) recorded for UUUAAGCAAUAUUACGGCCU was -0.999

Note to self: self-splicing fitness (ln) recorded for AGCCAGCAAUAUUACGGUUC was -3.66

Numbers sourced from the supplement of paper PMC7877785.
